The entries below come with measured Minimum Inhibitory Concentration values attached.
test system: Saccharomyces cerevisiae (ATCC 44774); format: cell-based; conditions: ATCC 44774, 12 h
No end group written: not given here.
State the answer as a number, implicitly in µg/mL.

# example entries with known answers
Chain	Unit Abbrev	Reported Result
KVLKNWPIGKVLKKVLKKVLK [compound 23]	µg/mL	1
KVVRKVVRKVVRQWPIGKVVR [compound 44]	µg/mL	1
KLVRNFPVGKLVRKLVRKLVR [compound 34]	µg/mL	1

What does the data say about its Minimum Inhibitory Concentration? Entry: RLVKRLVKRLVKNWPIGRLVK [compound 66]
2

Further, for RVLKRVLKRVLKQWPIGRVLK [compound 47] ?
2

Further, for RLVRRLVRRLVRNWPIGRLVR [compound 58] ?
2

Further, for RLVRNWPIGRLVRRLVRRLVR [compound 24] ?
2

Further, for KLLRNWPIGKLLRKLLRKLLR [compound 29] ?
2
